procedureDetails: binders of probe aFST on microarray, primary screen, stem cell growth factor project, biochemical, small-molecule microarray, fluorescence 635/667 (AID 1086);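 further: score merges 667 nm fluorescence with signal-to-noise of each printed compound spot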
measurementConditions: higher = more signal
parameterMeasured: composite z-score
Could you respond with only the numeric value?

Reported composite z-score, molecule COc1cc(C(O)C2C=CC3C(=O)N(c4ccccc4)C(=O)C3N2Nc2ccc(C#N)cc2)cc(OC)c1OC (centres undefined) : ____ 1.77

Subsequent entry: O=C(CS)NCCCCCCNC(=O)[C@H]1C[C@H]2C(=O)NCC(=O)N2[C@H]1c1ccc(O)cc1 -0.346

Further, for CCOc1cc(C(O)C2C=CC3C(=O)N(c4ccccc4)C(=O)C3N2Nc2ccc([N+](=O)[O-])cc2)ccc1O (centres undefined) ? 0.311

// query: COC(=O)C(CC#Cc1ccc2c(c1)[C@]1(C(=O)N2)[C@H](C(=O)NC[C@H](O)c2ccccc2)[C@H]2C(=O)O[C@H](c3ccccc3)[C@H](c3ccccc3)N2[C@@H]1c1ccc(OCCO)cc1)C(=O)OC 2.31

Another molecule: CC(=O)C1=CCC(c2ccccc2)N(S(=O)(=O)c2ccc(C)cc2)C1 (centres undefined) 0.57

# iterate: C=CC(COC(C)=O)NS(=O)(=O)c1ccc(Br)cc1 (centres undefined) 0.0296

Subsequent entry: COCCOC(=O)N1C(=O)[C@@]2(c3cc(C#CCC(C(=O)OC)C(=O)OC)ccc31)[C@H](c1ccccc1OCCO)N1[C@H](c3ccccc3)[C@H](c3ccccc3)OC(=O)[C@H]1[C@@H]2C(=O)N1CCc2cc(OC)c(OC)cc2C1 0.638

Entry to check: C=CCOC(=O)[C@H]1[C@@H]2C(=O)O[C@@H](c3ccccc3)[C@@H](c3ccccc3)N2[C@@H](c2ccc(OCCOC(=O)[C@@H]3C[C@@H]4C(=O)N5CCC[C@H]5C(=O)N4[C@@H]3c3ccc(O)cc3)cc2)[C@]12C(=O)Nc1ccccc12 0.328

Likewise for COC(=O)c1ccc(C23CC2(C(NP(=O)(c2ccccc2)c2ccccc2)c2ccccc2)C3)cc1 (centres undefined) ? 1.73

Quick one: CC(C)CNC(=O)[C@@]1(c2ccc([N+](=O)[O-])cc2)CC(=O)N(CC23CC4CC(CC(C4)C2)C3)[C@@H]1c1ccc(CO)cc1I 0.283

Next up: COc1ccc([Si](C)(C)[C@H]2[C@H](CC(=O)N(CCO)Cc3ccccc3)O[C@@]3(C(=O)N(Cc4cccc(N5CCC5=O)c4)c4ccccc43)[C@@H]2C)cc1 -0.194

Lookup COC(=O)[C@@]1(Cc2ccccc2)[C@H]2c3cc(C(=O)N4CCCC4)n(Cc4ccc(C)o4)c3C[C@H]2CN1C(=O)c1ccccc1 0.935

Another molecule to check: CN(C)CCCCNC(=O)[C@H]1C[C@H]2C(=O)N[C@@H](Cc3ccccc3)C(=O)N2[C@H]1c1ccc(O)cc1 0.748

CC(C)C[C@@H]1NC(=O)[C@H]2C[C@@H](C(=O)NCCCCCNC(=O)CS)[C@@H](c3cccc(OCCO)c3)N2C1=O ? 0.707

---

assaySystem: NADPH oxidase 5 (Homo sapiens) (UniProt Q96PH1)
Sequence (Q96PH1 whole entry, looked up): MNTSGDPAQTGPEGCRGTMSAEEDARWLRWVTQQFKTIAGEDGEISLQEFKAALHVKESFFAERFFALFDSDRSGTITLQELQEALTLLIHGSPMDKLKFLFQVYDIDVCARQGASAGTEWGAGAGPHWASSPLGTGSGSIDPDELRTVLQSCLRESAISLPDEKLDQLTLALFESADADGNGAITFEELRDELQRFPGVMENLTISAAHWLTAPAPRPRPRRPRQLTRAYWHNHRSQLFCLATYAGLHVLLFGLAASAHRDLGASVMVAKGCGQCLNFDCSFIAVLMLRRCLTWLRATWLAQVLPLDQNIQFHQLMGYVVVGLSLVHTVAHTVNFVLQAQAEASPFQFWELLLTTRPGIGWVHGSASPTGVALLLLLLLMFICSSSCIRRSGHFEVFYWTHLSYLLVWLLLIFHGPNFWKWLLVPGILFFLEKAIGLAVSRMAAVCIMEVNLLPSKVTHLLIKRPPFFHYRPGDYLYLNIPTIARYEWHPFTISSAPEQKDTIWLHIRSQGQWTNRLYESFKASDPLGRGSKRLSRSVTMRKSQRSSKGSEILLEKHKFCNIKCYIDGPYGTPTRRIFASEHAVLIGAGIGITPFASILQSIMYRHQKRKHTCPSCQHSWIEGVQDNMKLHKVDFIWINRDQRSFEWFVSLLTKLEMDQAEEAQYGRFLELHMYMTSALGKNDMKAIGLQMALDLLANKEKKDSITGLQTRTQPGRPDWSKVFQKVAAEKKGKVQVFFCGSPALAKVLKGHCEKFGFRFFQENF
procedureDetails: NOX5-dependent H2O2 signal modulators, primary screen, NOX inhibitor project, cell-based, HEK293-NOX5, Amplex Red fluorescence (AID 1161)
measurementConditions: HEK293-NOX5, ionomycin, 45 min, higher = more signal
parameterMeasured: z-score
// keep it numeric: no unit symbol after the value

Looking for the measured z-score of Cc1ccc(S[C@]2(C(=O)NC3CC3)CC(=O)N(Cc3ccccc3)[C@@H]2c2ccc(CO)cc2)cc1 , can you help? 0.997

Now this one: CCCCCN1CC=CC23O[C@@H]4C=CCOC(=O)[C@@H]4[C@H]2C(=O)N(CCCO)[C@@H]3C1=O (stereo partly specified) -1.14

What do you get for O=C1OCCC=C[C@H]2OC34C=CCN(Cc5ccccc5)C(=O)[C@H]3N(CCCCCO)C(=O)[C@@H]4C12 (stereo partly specified) ? 1.38

And what about the compound CC(C)C[C@@H]1NC(=O)[C@H]2C[C@@H](C(=O)NCCCCCCNC(=O)CS)[C@@H](c3cccc(OCCO)c3)N2C1=O ? -0.112

What about this compound? O=C1O[C@H](c2ccccc2)[C@H](c2ccccc2)N2[C@H]1[C@@H](C(=O)N1CCN(c3ncccn3)CC1)[C@]1(C(=O)Nc3ccccc31)[C@H]2c1ccc(OCCO)cc1 -2.84

// repeat for Cc1ccc([C@H]2[C@H](C(=O)O)[C@H](Sc3ccccc3)[C@@H](C(C)C)N2S(=O)(=O)c2ccc(C)cc2)cc1 and report 1.16

Then what about the compound COc1ccc([Si](C)(C)[C@H]2[C@H](CCn3cc([C@H](O)c4ccccc4)nn3)O[C@@]3(C(=O)N(Cc4cccc(N5CCC5=O)c4)c4ccccc43)[C@@H]2C)cc1 ? 2.04

Try this compound next: COCCOC(=O)N1C(=O)[C@@]2(c3cc(C#CCCO)ccc31)[C@H](C(=O)NC[C@H](O)c1ccccc1)[C@H]1C(=O)O[C@H](c3ccccc3)[C@H](c3ccccc3)N1[C@@H]2c1ccc(O)cc1 1.21

Next compound up: O=C(CCN1CCOCC1)c1cccc(O)c1 1.72

Also check CCCCC(CC)C(O)C1C=CC2C(=O)N(c3ccccc3)C(=O)C2N1Nc1ccccc1 (stereo unspecified) -5.76

Now consider CC(C)(C)OC(=O)CC[C@@]1(C(=O)O)N=C(c2ccc(OCCCO)cc2)O[C@@H]1c1ccccc1N=[N+]=[N-] . 0.907
